Assay: Emission lifetime measurement
Assay type: physicochemical
Test readout: τ1 emission lifetime (ns)
One number for each entry, in ns.

Would you please look over these solved cases?
[
  {
    "Compound structure": "F[P-](F)(F)(F)(F)F.O=C(O)CC[C@H](NC(=O)N[C@@H](CCCCNC(=O)CCn1cc[n+]2[c]1[Ir-3]13([c]4c(sc5ccccc45)-c4cccc[n+]41)([c]1c(sc4ccccc14)-c1cccc[n+]13)[n+]1ccccc1-2)C(=O)O)C(=O)O",
    "Units of measure": "ns",
    "τ1 emission lifetime": 197
  },
  {
    "Compound structure": "F[P-](F)(F)(F)(F)F.O=C(O)c1ccc2[n+](c1)[Ir-3]13([c]4ccccc4-2)([c]2ccccc2-c2ccc(C(=O)O)c[n+]21)[c]1n(CCCNC(=O)[c-]2cccc2)cc[n+]1-c1cccc[n+]13.[Fe+2].c1cc[cH-]c1",
    "Units of measure": "ns",
    "τ1 emission lifetime": 202
  },
  {
    "Compound structure": "F[P-](F)(F)(F)(F)F.O=C(NCCCn1cc[n+]2[c]1[Ir-3]13([c]4ccccc4-c4cccc[n+]41)([c]1ccccc1-c1cccc[n+]13)[n+]1ccccc1-2)[c-]1cccc1.[Fe+2].c1cc[cH-]c1",
    "Units of measure": "ns",
    "τ1 emission lifetime": 197
  }
]

Ask | Report τ1 emission lifetime, nothing else, for this molecule: F[P-](F)(F)(F)(F)F.O=C(NCCCn1cc[n+]2[c]1[Ir-3]13([c]4c(sc5ccccc45)-c4cccc[n+]41)([c]1c(sc4ccccc14)-c1cccc[n+]13)[n+]1ccccc1-2)[c-]1cccc1.[Fe+2].c1cc[cH-]c1
Reply | 196
